- Test system: BRM-dependent transcription (BRG1 mutant lung cancer cell line A549)
- assay protocol: BRM-dependent transcription, MMTV luciferase reporter in BRG1 mutant A549 cells
- Format: cell-based
- conditions: MMTV luciferase reporter cell lines, selectivity BRG1/BRM, Table 11
Label true for high-side Ratio (MDA-MMTV IC50 (μM) divided by A549-MMTV IC50 (μM)) (at or above 30) and false for low-side Ratio (MDA-MMTV IC50 (μM) divided by A549-MMTV IC50 (μM)) (below it).

These recorded examples may help you get a feel for the data.
C=Cc1cc(C(=O)NCc2cc3nc(-c4cccc(N5C[C@@H](C)O[C@@H](C)C5)n4)ccc3cn2)cc2c1OCC[C@H](F)S2(=O)=O | false
O=C(NCc1cc2nc(-c3cccc(OCC(F)F)n3)ccc2cn1)c1cc(Cl)c2c(c1)S(=O)(=O)[C@@H](F)COC2 | true
COCCOc1cnc2c(c1)CCCN2c1ccc2cnc(CNC(=O)c3cc(Cl)c4c(c3)S(=O)(=O)[C@@H](F)COC4)cc2n1 | false
COc1nc(C(C)(F)F)ccc1-c1ccc2cnc(CNC(=O)c3cc(C(F)F)c4c(c3)S(=O)(=O)[C@@H](F)COC4)cc2n1 | false
O=C(NCc1cc2nc(-c3cncc(OC(F)F)n3)ccc2cn1)c1cc(Cl)c2c(c1)S(=O)(=O)[C@@H](F)COC2 | false
CCOc1nc([C@@H](F)CF)ccc1-c1ccc2cnc(CNC(=O)c3cc(C(F)F)c4c(c3)S(=O)(=O)[C@@H](F)COC4)cc2n1 [Compound 515] | false

Is it the case that COCCc1ccc2c(n1)N(c1ccc3cnc(CNC(=O)c4cc(F)c5c(c4)S(=O)(=O)[C@@H](F)CCO5)cc3n1)CCO2 has Ratio (MDA-MMTV IC50 (μM) divided by A549-MMTV IC50 (μM)) reaching or exceeding 30?
false

Try the compound O=C(NCc1cc2nc(-c3cccc(OC(F)F)n3)ccc2cn1)c1cc(C(F)F)c2c(c1)S(=O)(=O)[C@@H](F)COC2
true

Try the compound O=C(NCc1cc2nc(N3CCCc4cc(OC(F)(F)F)cnc43)ccc2cn1)c1cc(F)c2c(c1)S(=O)(=O)[C@@H](F)CCO2
false

Try the compound CCOc1nc([C@H](F)CF)ccc1-c1ccc2cnc(CNC(=O)c3cc(C(F)F)c4c(c3)S(=O)(=O)[C@@H](F)COC4)cc2n1 [Compound 518]
true

Origin of the recorded values: patent US12139487B2
